This section lists AC50 readings for Cytochrome P450 2C9 (Homo sapiens).

Here is how some compounds turned out for AC50.
compound=O=C(CN1CCCC1)N/N=C/c1ccc(-c2cccc(Cl)c2)o1 property_measured=AC50 value_measured="15.8 µM (inconclusive)"
compound=O=c1c2ccccc2c(-c2ccc(Br)cc2)nn1Cc1ccccc1 property_measured=AC50 value_measured="3.55 µM (inconclusive)"
compound=Cc1c(CCC(C)C)c(-n2ccnc2C)n2c(nc3ccccc32)c1C#N property_measured=AC50 value_measured="3.98 µM (inconclusive)"
compound=COC(=O)[C@@H]1CC[C@H](C)[C@@H](c2ccc(C)cc2)N1C(=O)c1ccc(/C=N\O[C@@H](C)CN2CCCc3nc(C)c(C)cc32)cc1 property_measured=AC50 value_measured="3.16 µM (inconclusive)"

Problem: Fill in the recorded AC50 for this compound, with Cytochrome P450 2C9 (Homo sapiens) as test system: "c1ccc2cc(-c3csnn3)ccc2c1"
Sequence (P11712 whole entry): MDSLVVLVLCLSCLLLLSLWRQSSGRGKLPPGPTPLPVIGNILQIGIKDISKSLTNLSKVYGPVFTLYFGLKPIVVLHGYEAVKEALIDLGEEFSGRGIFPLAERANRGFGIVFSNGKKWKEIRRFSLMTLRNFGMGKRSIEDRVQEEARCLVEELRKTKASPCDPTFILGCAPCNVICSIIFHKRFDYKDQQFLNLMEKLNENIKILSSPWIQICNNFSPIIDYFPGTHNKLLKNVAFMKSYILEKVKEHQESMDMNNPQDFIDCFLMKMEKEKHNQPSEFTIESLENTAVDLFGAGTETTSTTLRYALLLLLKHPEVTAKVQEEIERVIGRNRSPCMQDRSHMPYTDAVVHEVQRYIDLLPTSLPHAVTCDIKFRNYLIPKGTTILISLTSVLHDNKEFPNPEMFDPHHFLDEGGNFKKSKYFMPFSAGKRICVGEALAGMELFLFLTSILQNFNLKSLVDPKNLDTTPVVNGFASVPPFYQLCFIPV
Solution: 14.1 µM (inconclusive)

Problem: Form field - read-out: AC50; system: Cytochrome P450 2C9 (Homo sapiens); submitted item: "CC#CCOC(=O)c1c(C)nc2sc3c(c2c1N)CC[C@@H](O)C3"
Solution: 15.8 µM (inconclusive)

Problem: Entry "Cc1ccccc1C(=O)N1CCc2ccccc2C1" , system Cytochrome P450 2C9 (Homo sapiens): what AC50 was measured?
Solution: 5.62 µM (inconclusive)

Problem: Item "CCc1nnc(NC(=O)CSc2nc3cc4c(cc3cc2C)OCCO4)s1" with Cytochrome P450 2C9 (Homo sapiens) - AC50?
Solution: 0.398 µM (inconclusive)

Problem: Param readout = AC50; param system = Cytochrome P450 2C9 (Homo sapiens); param query = "O=[N+]([O-])c1ccc(C2=Nn3c(nnc3-c3ccc(Cl)cc3)SC2)o1" ; response: value
Solution: 7.94 µM (inconclusive)

Problem: Which AC50 is reported with Cytochrome P450 2C9 (Homo sapiens) for this entry: "CC(=O)Nc1ccc(Nc2ncc([N+](=O)[O-])c(Nc3ccc(NC(C)=O)cc3)n2)cc1" ?
Solution: 0.355 µM (inconclusive)

Problem: So what AC50 did CCC/C=C(\CCC)C(NS(=O)(=O)c1ccc(-c2ccccc2)cc1)c1ccc(C(=O)OC)cc1 (stereo not drawn) get with Cytochrome P450 2C9 (Homo sapiens)?
Solution: 3.16 µM (inconclusive)

Problem: Hello, I am looking for reported AC50 with Cytochrome P450 2C9 (Homo sapiens) for "O=c1c(-c2ccc(Cl)cc2)nc2cnc(N3CCNCC3)nc2n1-c1ccccc1" . Could you help?
Solution: 15.8 µM (inconclusive)

Problem: Give AC50 (Cytochrome P450 2C9 (Homo sapiens)) of the following compound: "Cc1ccc(C(=O)N/N=C/c2sc(=O)n(Cc3cccc(C(=O)O)c3)c2Cl)cc1"
Solution: 12.6 µM (inconclusive)

Problem: Field: AC50 (Cytochrome P450 2C9 (Homo sapiens)). Entry: "CC(C)(C)OC(=O)NCCc1nnc(SCC(=O)Nc2cccc(Cl)c2)o1"
Solution: 25.1 µM (inconclusive)

Problem: Identify the measured AC50 of "COc1ccc(C(=O)N2CCC3(CC2)CN(c2ccncc2)C3)cc1" for Cytochrome P450 2C9 (Homo sapiens).
Solution: 39.8 µM (inconclusive)

----------
Measured AC50 by item
study_target: Microphthalmia-associated transcription factor (Homo sapiens, UniProt O75030)
Sequence (O75030 whole entry): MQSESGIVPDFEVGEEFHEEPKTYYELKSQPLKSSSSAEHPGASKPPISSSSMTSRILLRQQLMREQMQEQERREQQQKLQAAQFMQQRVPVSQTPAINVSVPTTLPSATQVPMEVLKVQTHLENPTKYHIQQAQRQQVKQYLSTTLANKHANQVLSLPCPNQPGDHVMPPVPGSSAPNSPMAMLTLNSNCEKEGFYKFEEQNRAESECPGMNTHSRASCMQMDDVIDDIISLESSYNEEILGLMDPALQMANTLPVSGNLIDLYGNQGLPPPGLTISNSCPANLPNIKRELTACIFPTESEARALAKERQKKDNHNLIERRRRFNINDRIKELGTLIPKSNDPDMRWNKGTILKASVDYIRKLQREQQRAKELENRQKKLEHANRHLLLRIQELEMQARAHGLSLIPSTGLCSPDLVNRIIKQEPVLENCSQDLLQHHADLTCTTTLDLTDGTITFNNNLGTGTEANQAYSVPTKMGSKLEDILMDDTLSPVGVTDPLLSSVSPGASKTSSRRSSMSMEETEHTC
procedure_details: TRPM1 promoter luciferase signal decrease, dose response, MITF inhibitor project, cell-based, SK-MEL-5, cherry-picked, set 3 (AID 493073);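 note: SK-MEL-5 melanoma cells with luciferase driven by the MITF target TRPM1 promoter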
Type: functional
Calls of active or inactive are those of the source. The rule behind the calls is not given here.

mol_smiles=O=C(Cn1ncc(Cl)c(Cl)c1=O)NCC1CCCCC1 value_measured="7.39 µM (active)"

Problem: Consider the compound shown here: "CN1CCN(c2ccc(NC(=S)NC(=O)c3cccc4ccccc34)cc2)CC1" What is its recorded AC50?
Solution: 9 µM (active)

Problem: Recorded AC50 for "CCN(CC)CCn1nc2c3c(cccc3c1=O)-c1ccccc1-2" , please?
Solution: 5.92 µM (active)

Problem: Consider the compound shown here: "CCN(CC)Cc1c(O)ccc2c1O/C(=C\C=C\c1ccccc1)C2=O" What is its recorded AC50?
Solution: 47.6 µM (active)
